B1: CPEB3 Ribozyme (parent)
chain: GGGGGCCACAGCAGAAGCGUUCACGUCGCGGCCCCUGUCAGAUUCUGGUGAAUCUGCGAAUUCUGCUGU

variants of: B1; assay: self-cleavage, relative activity (ratio to wild type); higher = more cleavage; co-transcriptional

Variant description | self-cleavage
A15U G58C | 0.821
G4A C54G | 0.388
C18U G58U | 0.942
U61C U67C | 0.764
C34U G47U | 0.995
G3U G68A | 0.554
U21G C29U | 0.166
C12U U43G | 0.706
C22A G48A | 0.223
